Numbers sourced from the supplement of paper PMC10567573.

# Procedure summary: protein stability index of a GFP-peptide fusion (GPS, HEK-293T) (PSI 1-6); higher = more stable;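 note: 24-mer peptide tiles fused after GFP, lentivirally expressed, FACS-sorted into six equal bins by GFP/DsRed ratio, decoded by Illumina sequencing, PSI is the read-weighted mean bin number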
# Measurement parameters: treatment: DMSO; c terminus: a fixed tail appended
Each item that follows carries a reported protein stability index.
Note: the reply should be a number with no unit written.

These solved cases illustrate the format of a correct answer.
Lab book: protein stability index of LVKKVEEDEAGGRFVAFSGEGQSL [UFD1] noted as 4.71

Lab book: protein stability index of TERSPGPRLQELLGPSPQRDPQAV [ZNF263] noted as 4.79

Lab book: protein stability index of EKGEKGDRAGDASKDILLGPWDMV [SCARA5] noted as 4.41

Lab book: protein stability index of KTNLDGMITVQLPEVPANENIKGY [PTPRD] noted as 4.12

Lab book: protein stability index of EGVSLTAVLTTHHHWDHARGNPEL [HAGHL] noted as 2.72

Lab book: protein stability index of YRCIREARYTMPSSLLAPAKHLIA [PLK2] noted as 2.56

Lab book: protein stability index of GKSFSQNTNLHTHQRTHTGEKPFT [ZNF75A] noted as 4.01

Others:
Lab book: protein stability index of HNQVEAAWLEGRIRQEFDKLREFL [TRIM35] noted as 3.5

====

# Procedure summary: protein stability index of a GFP-peptide fusion (GPS, HEK-293T) (PSI 1-6); higher = more stable
# Measurement parameters: treatment: MLN4924 1 uM, 8 h; c terminus: a fixed tail appended
Decide using protein stability index: a value greater than or equal to 3 is Condition met, a smaller one is Condition not met.

Some solved cases for reference:
Exam item: Given LLQIIDTTLLKCYLHTNVALVAPL [VPS39] , state whether its protein stability index is at least 3.
Marked response: Condition met

Exam item: Given EEQALTKAAEGGLSSPEFSELCIW [FAM98B] , state whether its protein stability index is at least 3.
Marked response: Condition met

Exam item: Given DHSEHLSGSSYRDALQRYGTSHGA [RBMY1A1] , state whether its protein stability index is at least 3.
Marked response: Condition met

Exam item: Given PPQPMVPLAVENQAGGEGAGGELG [PBXIP1] , state whether its protein stability index is at least 3.
Marked response: Condition met

Exam item: Given ARIAIRGTIKKIIHQETVSKNGNG [PCMTD2] , state whether its protein stability index is at least 3.
Marked response: Condition met

Exam item: Given AKALNRPPTYPTKYFGCELGAQTQ [EIF5] , state whether its protein stability index is at least 3.
Marked response: Condition met

Let us examine a further case.
Exam item: Given NGAKELWFFLQSELKKLKNLEGNE [FUT8] , state whether its protein stability index is at least 3.
Marked response: Condition not met

====

# Procedure summary: protein stability index of a GFP-peptide fusion (GPS, HEK-293T) (PSI 1-6); higher = more stable
# Measurement parameters: treatment: MLN4924 1 uM, 8 h; c terminus: a fixed tail appended
Each item that follows carries a reported protein stability index.
Note: the reply should be a number with no unit written.

Lab book: protein stability index of LKLALDMEIATYRKLLESEECRMS [KRT71] noted as 2.88

Others:
Lab book: protein stability index of KDMSESQDEVPDEVENQFILRLPL [TAF7L] noted as 4.85

Lab book: protein stability index of QIPVTDSGRHILEDSCAELGESKE [SDE2] noted as 5.19

Lab book: protein stability index of QIRTVIQYQTVRYDILPLSPVSRN [CTDNEP1] noted as 2.26

Lab book: protein stability index of VVLSDGPALHPAHAPQISYTGPSS [NCK2] noted as 3.38

Lab book: protein stability index of CLTTGDVIAINYNEKIYELRVMET [UFD1] noted as 2.04

Lab book: protein stability index of FEDAKEKMREFTKTIKRPFGVKYN [TPH1] noted as 3.1

Lab book: protein stability index of KRPYAKELETVDFKDKLEETKGQI [SERPINB5] noted as 5.23

====

Each item that follows carries a reported protein stability index.
# Procedure summary: protein stability index of a GFP-peptide fusion (GPS, HEK-293T) (PSI 1-6); higher = more stable
# Measurement parameters: treatment: MLN4924 1 uM, 8 h; c terminus: a fixed tail appended
Note: the reply should be a number with no unit written.

Lab book: protein stability index of GDFWRMIWEQRSATVVMMTKLEER [PTPRD] noted as 2.36

Lab book: protein stability index of TGFPQYAQLYEDFLFPIDISLVKR [DLC1] noted as 2.35

Lab book: protein stability index of YYLCGFCPAELFTNTRSDLDVFGR [LUC7L3] noted as 2.04

Others:
Lab book: protein stability index of APRGKNGFTPLHMAVDKDTTNVGR [FEM1A] noted as 4.44

Lab book: protein stability index of DFKEDLKKFRTKSRTWAGEKSKRE [CDC25A] noted as 4.92

Lab book: protein stability index of QLDREAQARHQLVLTAVDGGTPAR [PCDHGC5] noted as 4.76

====

# Procedure summary: protein stability index of a GFP-peptide fusion (GPS, HEK-293T) (PSI 1-6); higher = more stable
# Measurement parameters: treatment: DMSO; c terminus: a fixed tail appended
Quantity kind: protein stability index
Note: the reply should be a number with no unit written.

These solved cases illustrate the format of a correct answer.
Lab book: protein stability index of DAFVKIVRHEGTRTLWSGLPATLV [SLC25A39] noted as 2.6

Lab book: protein stability index of EDTQTDADSSAQAAAQAPENFQEG [TAF7L] noted as 5.47

Lab book: protein stability index of QQDFLGLPEELRRLSGLSSVGHNW [C22orf15] noted as 2.96

Lab book: protein stability index of EEQALTKAAEGGLSSPEFSELCIW [FAM98B] noted as 3.72

Lab book: protein stability index of KPGFLAPRDLPKHTPLISKSQSLR [RASAL3] noted as 3.61

Others:
Lab book: protein stability index of SAQLQELVCHVMMGNLVMFRKDSV [INTS3] noted as 3.07

Lab book: protein stability index of MLWVQRKRRRKETSECPSDKDKSP [C10orf62] noted as 3.2

Lab book: protein stability index of MQERVQRLEAARLSLEEELSRVKA [LRRC45] noted as 4.25

Lab book: protein stability index of DQDGEYCPEVKLKTTGLEEAAEAE [SRPK2] noted as 5.63

Lab book: protein stability index of ALVGCVISDNPERYSTNLSNHVDD [EDNRA] noted as 3.94

Lab book: protein stability index of NVAASNAKLALFYDWLFFSPDKDS [INTS3] noted as 2.39

====

# Procedure summary: protein stability index of a GFP-peptide fusion (GPS, HEK-293T) (PSI 1-6); higher = more stable
# Measurement parameters: treatment: DMSO; c terminus: a fixed tail appended
Decide using protein stability index: a value greater than or equal to 4 is yes, a smaller one is no.

Exam item: Given AVGKMGFVVTMLKLIQKKLLDKTC [ZER1] , state whether its protein stability index is at least 4.
Marked response: no

Exam item: Given RLKFPIDYPYSPPAFRFLTKMWHP [CDC34] , state whether its protein stability index is at least 4.
Marked response: no

Exam item: Given DKSPSTVRDQGPSIPLTPGDTPIR [FBF1] , state whether its protein stability index is at least 4.
Marked response: yes

Exam item: Given KEKCVSLPDCCHGSELRDFPGRPM [DLC1] , state whether its protein stability index is at least 4.
Marked response: no

Exam item: Given ICFKEMLANSWNCLPKHLLHSVNQ [KLHDC2] , state whether its protein stability index is at least 4.
Marked response: no

Let us examine a further case.
Exam item: Given NLFVPLNTNPKEVQEMRNKIREQN [ADD1] , state whether its protein stability index is at least 4.
Marked response: yes

====

# Procedure summary: protein stability index of a GFP-peptide fusion (GPS, HEK-293T) (PSI 1-6); higher = more stable
# Measurement parameters: treatment: DMSO; c terminus: a fixed tail appended
Decide using protein stability index: a value greater than or equal to 3 is condition met, a smaller one is condition not met.

Some solved cases for reference:
Exam item: Given CTRPVPRNGGKYCEGRRTRFRSCN [ADAMTS4] , state whether its protein stability index is at least 3.
Marked response: condition met

Exam item: Given GPVAGLDDSGGPTPSSYAPSHPPR [ZBTB22] , state whether its protein stability index is at least 3.
Marked response: condition met

Exam item: Given NGAKELWFFLQSELKKLKNLEGNE [FUT8] , state whether its protein stability index is at least 3.
Marked response: condition not met

Exam item: Given SRDRRRSSDRSRDSSHERTESQLT [BTBD10] , state whether its protein stability index is at least 3.
Marked response: condition met

Exam item: Given CHQMGVVHRDLKPENLLLASKCKG [CAMK2B] , state whether its protein stability index is at least 3.
Marked response: condition met

Others:
Exam item: Given KPDKAVSIIECDMNVDFDAPLGYK [UFD1] , state whether its protein stability index is at least 3.
Marked response: condition met
